Melanocortin receptor 3 (Homo sapiens, UniProt P41968) AC50 data; note: assay procedure not described here
Sequence (P41968 whole entry): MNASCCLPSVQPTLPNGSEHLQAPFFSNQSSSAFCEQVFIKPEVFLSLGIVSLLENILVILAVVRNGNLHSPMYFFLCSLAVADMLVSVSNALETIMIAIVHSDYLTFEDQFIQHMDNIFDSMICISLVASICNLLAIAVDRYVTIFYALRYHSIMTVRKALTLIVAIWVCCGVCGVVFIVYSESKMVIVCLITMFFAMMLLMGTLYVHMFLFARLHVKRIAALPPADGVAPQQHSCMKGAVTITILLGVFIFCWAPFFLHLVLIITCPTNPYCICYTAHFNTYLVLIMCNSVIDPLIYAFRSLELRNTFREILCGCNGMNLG

Some molecules with known AC50 results, for comparison:
INSERT INTO measurements (molecule, target_under_test, measure, reported_result) VALUES
  ('CCCCCN(C)CCC(O)(P(=O)(O)O)P(=O)(O)O [IBANDRONIC ACID]', 'Melanocortin receptor 3 (Homo sapiens, UniProt P41968)', 'AC50', '> 30 µM'),
  ('CC(C(=O)O)c1ccc(C(=O)c2cccs2)cc1 (configuration not stated) [SUPROFEN]', 'Melanocortin receptor 3 (Homo sapiens, UniProt P41968)', 'AC50', '> 10 µM');

Quick batch: AC50 for everything below.
1. C[N+](C)(C)CC(=O)O [BETAINE]
2. CN[C@@H]1[C@H](O)[C@H](NC)[C@H]2O[C@@]3(O)C(=O)C[C@@H](C)O[C@H]3O[C@@H]2[C@H]1O [SPECTINOMYCIN]
3. CN(C)CCCN1c2ccccc2Sc2ccccc21 [PROMAZINE]
4. COC(=O)N[C@H](C(=O)N1CCC[C@H]1c1nc(-c2ccc(-c3ccc(-c4c[nH]c([C@@H]5CCCN5C(=O)[C@@H](NC(=O)OC)C(C)C)n4)cc3)cc2)c[nH]1)C(C)C

> 30 µM
> 10 µM
> 30 µM
> 30 µM

Quick batch: AC50 for everything below.
1. C1=Cc2cccc(OCC3CNCCO3)c2C1 (configuration not stated) [INDELOXAZINE]
2. CN1CCc2cccc3c2[C@H]1Cc1ccc(O)c(O)c1-3 [APOMORPHINE]
3. C#CCN[C@@H]1CCc2ccccc21 [RASAGILINE]

1: > 30 µM; 2: > 30 µM; 3: > 30 µM

Quick batch: AC50 for everything below.
1. C[C@@H]1O[C@@H]1P(=O)(O)O [FOSFOMYCIN]
2. COc1ccc2c(c1)c(CC(=O)OCC(=O)O)c(C)n2C(=O)c1ccc(Cl)cc1 [ACEMETACIN]
3. CC(Cc1ccccc1)NCCC(c1ccccc1)c1ccccc1 (configuration not stated) [PRENYLAMINE]
4. O=C(O)Cc1cn(-c2ccccc2)nc1-c1ccc(Cl)cc1 [LONAZOLAC]

> 10 µM
> 30 µM
> 30 µM
> 30 µM
